Values were extracted from patent US20200369728A1.

system: Caspase 3; test: Caspase 3 detection assay in SJSA1 cells; format: cell-based; details: 3 μM, SJSA1, 48 h, Caspase 3 activation over DMSO-treated cells
# reported caspase 3 μM; entries follow

{"COMPOUND": "CC[C@H](C)[C@H](NC(=O)[C@H](C)NC(=O)[C@H](C)NC(=O)[C@]1(C)CCCC=CCCCCCC[C@@](C)(NC(=O)[C@H](Cc2ccccc2)NC(=O)[C@@H](NC(=O)[C@H](CC(C)C)NC(C)=O)[C@@H](C)O)C(=O)N[C@@H](C)C(=O)N[C@@H](Cc2ccc(O)cc2)C(=O)N[C@@H](Cc2c[nH]c3ccccc23)C(=O)N[C@@H](C)C(=O)N[C@@H](C)C(=O)N[C@@H](CC(C)C)C(=O)N1)C(=O)N[C@H](C)C(N)=O (single isomer, unassigned)", "caspase 3 μM": 3}
{"COMPOUND": "CC[C@H](C)[C@H](NC(=O)[C@H](C)NC(=O)[C@H](C)NC(=O)[C@]1(C)CCCC=CCCCCCC[C@@](C)(NC(=O)[C@H](Cc2ccccc2)NC(=O)[C@@H](NC(=O)[C@H](CC(C)C)NC(C)=O)[C@@H](C)O)C(=O)N[C@@H](CCC(=O)O)C(=O)N[C@@H](Cc2c[nH]cn2)C(=O)N[C@@H](Cc2c[nH]c3ccccc23)C(=O)N[C@@H](C)C(=O)N[C@@H](CCC(N)=O)C(=O)N[C@@H](CC(C)C)C(=O)N1)C(=O)N[C@H](C)C(N)=O (single isomer, unassigned)", "caspase 3 μM": 1}

###

tested on: SJSA-1 cells; experiment: Cell lysis by peptidomimetic macrocycles (LDH release); assay type: cell-based; settings: 25 μM, SJSA-1, 1 h
Bridge positions count the residues as written; N and C are the ends. Square brackets hold non-standard residues; d marks the D form. Peptide text beside a SMILES is read from it. R8 = C=CCCCCCC[C@@](C)(N)C(=O)O; Chg = N[C@H](C(=O)O)C1CCCCC1; hLeu = CC(C)CC[C@H](N)C(=O)O; S5 = C=CCCC[C@](C)(N)C(=O)O
VALUE TYPE: 25 μM % Lysed cells (1 h LDH) (%)

{"COMPOUND": "CC(=O)N[C@@H](CCC(=O)O)C(=O)N[C@H](C(=O)N[C@@H](Cc1ccccc1)C(=O)N[C@]1(C)CCCCCCC=CCCC[C@@](C)(C(=O)N[C@@H](C)C(=O)N[C@@H](C)C(=O)N[C@@H](C)C(=O)N[C@@H](C)C(=O)N[C@@H](C)C(=O)N[C@H](C)C(N)=O)NC(=O)[C@H](CC(C)C)NC(=O)[C@H](CCC(N)=O)NC(=O)[C@H](C)NC(=O)[C@H](Cc2c[nH]c3ccccc23)NC(=O)[C@H](Cc2ccc(O)cc2)NC(=O)[C@H](CCC(=O)O)NC1=O)[C@@H](C)O (single isomer, unassigned) [compound 341]", "VALUE TYPE": "25 μM % Lysed cells (1 h LDH)", "QUANTITATIVE RESULT": 0}
{"COMPOUND": "CC(=O)N[C@@H](CC(C)C)C(=O)N[C@H](C(=O)N[C@@H](Cc1ccccc1)C(=O)N[C@]1(C)CCCCCCC=CCCC[C@@](C)(C(=O)N[C@@H](CO)C(=O)N[C@@H](C)C(=O)N[C@@H](CO)C(N)=O)NC(=O)[C@H](CC(C)C)NC(=O)[C@H](CCC(N)=O)NC(=O)[C@H](C)NC(=O)[C@H](Cc2c[nH]c3ccccc23)NC(=O)[C@H](Cc2ccc(O)cc2)NC(=O)[C@H](C)NC1=O)[C@@H](C)O [compound 122] (Ac-LTF[R8]AYWAQL[S5]SAS-NH2; staple 4-11)", "VALUE TYPE": "25 μM % Lysed cells (1 h LDH)", "QUANTITATIVE RESULT": 0}
{"COMPOUND": "CC(=O)N[C@@H](CC(C)C)C(=O)N[C@H](C(=O)N[C@@H](Cc1ccccc1)C(=O)N[C@]1(C)CCCCCC/C=C/CCC[C@@](C)(C(=O)N[C@@H](CO)C(=O)N[C@@H](C)C(=O)N[C@@H](C)C(N)=O)NC(=O)[C@H](CCC(C)C)NC(=O)[C@H](CCC(N)=O)NC(=O)[C@H](C)NC(=O)[C@H](Cc2c[nH]c3ccccc23)NC(=O)[C@H](Cc2ccc(O)cc2)NC(=O)[C@H](C)NC1=O)[C@@H](C)O [compound 115] (Ac-LTF[R8]AYWAQ[hLeu][S5]SAA-NH2; staple (E) 4-11)", "VALUE TYPE": "25 μM % Lysed cells (1 h LDH)", "QUANTITATIVE RESULT": "−1"}
{"COMPOUND": "CC(=O)N[C@@H](CC(C)C)C(=O)N[C@H](C(=O)N[C@@H](Cc1ccccc1)C(=O)N[C@]1(C)CCCCCC/C=C/CCC[C@@](C)(C(=O)N[C@@H](C)C(=O)N[C@@H](C)C(=O)N[C@@H](C)C(=O)N[C@@H](C)C(=O)N[C@@H](C)C(=O)N[C@H](C)C(N)=O)NC(=O)[C@H](CC(C)C)NC(=O)[C@H](CCC(N)=O)NC(=O)[C@H](C)NC(=O)[C@H](Cc2c[nH]c3ccccc23)NC(=O)[C@H](Cc2ccc(O)cc2)NC(=O)[C@H](CCC(=O)O)NC1=O)[C@@H](C)O [compound 331]", "VALUE TYPE": "25 μM % Lysed cells (1 h LDH)", "QUANTITATIVE RESULT": 0}
{"COMPOUND": "CC(=O)N[C@@H](CC(C)C)C(=O)N[C@H](C(=O)N[C@@H](Cc1ccccc1)C(=O)N[C@]1(C)CCCCCCC=CCCC[C@@](C)(C(=O)N[C@@H](CO)C(=O)N[C@@H](C)C(=O)N[C@H](C(N)=O)C2CCCCC2)NC(=O)[C@H](CC(C)C)NC(=O)[C@H](CCC(N)=O)NC(=O)[C@H](C)NC(=O)[C@H](Cc2c[nH]c3ccccc23)NC(=O)[C@H](Cc2ccc(O)cc2)NC(=O)[C@H](C)NC1=O)[C@@H](C)O [compound 9] (Ac-LTF[R8]AYWAQL[S5]SA[Chg]-NH2; staple 4-11)", "VALUE TYPE": "25 μM % Lysed cells (1 h LDH)", "QUANTITATIVE RESULT": 0}
{"COMPOUND": "CC(=O)N[C@@H](CCC(=O)O)C(=O)N[C@H](C(=O)N[C@@H](Cc1ccccc1)C(=O)N[C@]1(C)CCCCCCC=CCCC[C@@](C)(C(=O)N[C@@H](CO)C(=O)N[C@@H](C)C(=O)N[C@@H](C)C(N)=O)NC(=O)[C@H](CC(C)C)NC(=O)[C@H](CCC(N)=O)NC(=O)[C@H](C)NC(=O)[C@H](Cc2c[nH]c3ccccc23)NC(=O)[C@H](Cc2ccc(O)cc2)NC(=O)[C@H](C(C)C)NC1=O)[C@@H](C)O [compound 125] (Ac-ETF[R8]VYWAQL[S5]SAA-NH2; staple 4-11)", "VALUE TYPE": "25 μM % Lysed cells (1 h LDH)", "QUANTITATIVE RESULT": 0}
